Hey, just so you know, these numbers are from PubChem BioAssay.

- PROTOCOL TEXT: DUSP6 inhibitors restoring Erk phosphorylation by chemical complementation, primary imaging in DUSP6-transfected HeLa (AID 609)
- MEASUREMENT PARAMETERS: HeLa MKP-3 transfected, phospho-Erk imaging KS statistic; measured here: cell density z-score; at 10 µM; cells stimulated with TPA for 15 min
Entry class follows z-score: bottom bin (below -0.3), middle bin (-0.3 to below 0.4), top bin (0.4 or more)

Please let me know in which category the item CCN(CC)CCCN1C(=O)C(=O)/C(=C(/O)c2ccc3c(c2)CC(C)O3)C1c1ccncc1 (stereo not given) belongs. top bin

Please let me know in which category the item COc1ccc2c(c1OC)C(=O)OC2c1c(O)nc(SC)n(-c2ccccc2)c1=O (stereo not given) belongs. top bin

Please let me know in which category the item Nc1nc2n(n1)C(c1ccc(F)cc1)CC(c1ccc(F)cc1)N2 (stereo not given) belongs. middle bin

Please let me know in which category the item CC12CCC(=O)N1c1c(sc3nc(N4CCOCC4)c4c(c13)CCCC4)C(=O)N2 (stereo not given) belongs. bottom bin

Please let me know in which category the item CC(C)c1nc(N2CCOCC2)c(C#N)c2c1COC(C)(C)C2 belongs. middle bin

Please let me know in which category the item CCOc1ccc(-c2nc(C#N)c(N3CCN(CC)CC3)o2)cc1 belongs. top bin

Please let me know in which category the item O=C(NCCc1ccccc1)/C(=N\O)c1ccccc1 belongs. top bin

Please let me know in which category the item COc1ccc(OC)c(NS(=O)(=O)c2ccc(N3CCCC3=O)cc2)c1 belongs. top bin

Please let me know in which category the item CCOC(=O)c1[nH]c2ccc(OC)cc2c1NC(=O)CCN1CCCC(C)C1 (stereo not given) belongs. bottom bin

Please let me know in which category the item Cn1c(=O)c2c(nc(Oc3ccc4c(c3)OCO4)n2Cc2ccc(Br)cc2)n(C)c1=O belongs. middle bin

Please let me know in which category the item O=C(NCc1ccccn1)c1coc(=O)c(Br)c1 belongs. middle bin

Please let me know in which category the item COc1ccc(OC)c(C2C(C(=O)c3sc(C)nc3C)=C(O)C(=O)N2CCN2CCOCC2)c1 (stereo not given) belongs. bottom bin

Please let me know in which category the item CC(C)CNc1nc2c(c(=O)n(C)c(=O)n2C)n1Cc1cccc(Br)c1 belongs. top bin

Please let me know in which category the item Cc1nn(CC(=O)N2CCOCC2)c(=O)c2ccccc12 belongs. top bin

Please let me know in which category the item Cc1ccc(-c2nn(C)c(=O)c3ccccc23)cc1CN1CCOCC1 belongs. middle bin

Please let me know in which category the item CCC1CC2(C)NC(=O)c3c(sc4c3CC(C)(C)OC4)N2C1=O (stereo not given) belongs. top bin

Please let me know in which category the item CCOC(=O)CSc1nc(N)c(C(=O)Nc2ccc(N(C)C)cc2)s1 belongs. bottom bin

Please let me know in which category the item COc1ccc(C(=O)c2oc3nc(C)cc(C)c3c2N)cc1 belongs. top bin

Please let me know in which category the item Cc1cccn2c(=O)c3cc(C(N)=S)c(=N)n(CCCOC(C)C)c3nc12 belongs. top bin

Please let me know in which category the item CCC(NC(=O)Nc1nccs1)(C(F)(F)F)C(F)(F)F belongs. middle bin

----------
- PROTOCOL TEXT: inhibitors of larval lipid processing in zebrafish, primary screen, whole organism, PED6 fluorescence, gall bladder and intestine (AID 686);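 further: larvae 5 to 7 days old with five fish per well; signal comes from phospholipase A2 cleavage of quenched PED6 carried via bile; overnight exposure to compound and PED6 before scoring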
- MEASUREMENT PARAMETERS: Zebrafish larvae PED6 lipid processing, fluorescence scoring; screened at 20 µM (by protocol)
Activity calls are given as the source filed them.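 Rule for the calls: active = a full or partial loss of lipid-probe fluorescence in the fish gall bladder, intestine or both, judged by eye; inactive = no fluorescence loss, or compound toxic to the fish.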
I would appreciate it if you answered using one of these outcomes: active, inactive

Solved cases below.
{"columns": ["COMPOUND", "CLASS LABEL"],
 "data": [
  ["COc1cc(/C=N/n2nnnc2N)ccc1O", "inactive"],
  ["N#CC1=C(N)OC2=C(C(=O)CCC2)[C@]12C(=O)N(CC(N)=O)c1ccccc12", "inactive"]
]}

What was the test verdict on Cc1cc(OCC(=O)Nn2cnnc2)ccc1Br ? inactive

What was the test verdict on CN(CCCCCC(=O)/C=N/O)Cc1ccccc1 ? inactive

What was the test verdict on Cc1cc(C)n(C2CCCCC2OC(=O)c2ccccc2)n1 (stereo not drawn) ? inactive

What was the test verdict on CC(C)OC(=O)c1c2nc3ccccc3nc2n2c1[nH]c(=O)c1ccccc12 ? inactive

What was the test verdict on Cn1c(=O)[nH]c(=O)c2c1nc(N1CCN(c3cccc(Cl)c3)CC1)n2CCCc1ccccc1 ? inactive
